Value source: the supplement of paper PMC9170038

Tested on: K4 kissing-loop RNA reporter;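 also: bound reporter read as fluorescence of individual clusters on recovered sequencing chips by microscopy, with normalized cluster intensities fitted with a binding model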
test.protocol: apparent KD of K4 kissing-loop reporter; higher = weaker reporter binding
recorded.conditions: Eterna round: R107; input ligand: none
Classification field: TRUE = apparent KD of K4 kissing-loop reporter at or over 300 nM; FALSE = apparent KD of K4 kissing-loop reporter under 300 nM.

IN: Hi, just wondering whether GUGCAGUGAUGUUGCACGAGGAAAGACGAUACCAGCCGUAAAUAAGGCCCUUGGCAGCGUAGGCUAGCAUAAGGUAUGCUAGUCC [Atesermace] shows apparent KD of K4 kissing-loop reporter of 300 nM or higher.
OUT: FALSE

IN: Hi, just wondering whether AGCUCAGAGUGACUCGAUAAGAGUCACAAACGAGGACCGGUACGGCCGCCACUCGAAAUAACGAGAGUGAUGUUCUCGCUGGGCA [FiskerMod 1 - Jieux - Same State Tryptophan A] shows apparent KD of K4 kissing-loop reporter of 300 nM or higher.
OUT: TRUE

IN: Hi, just wondering whether AAGAAGGUCAAAGACCUUCGUGCUCGUGAUACCAGUCGCGAAAGCGGCCCUUGGCAGCACGGCAGUGAUGUUGCCAAGAGCACAA [#13 K4 Theophylline A Same State] shows apparent KD of K4 kissing-loop reporter of 300 nM or higher.
OUT: FALSE

IN: Hi, just wondering whether UGAUAAAGCAGUGAUGUUGCAAGAAAUGAUACCAGUUAAGAAGAGAACCCUUGGCAGCAUAAAGUGCGCUCUAAUGAGUGUGCUU [whbob_SS_Theo_A_w50] shows apparent KD of K4 kissing-loop reporter of 300 nM or higher.
OUT: FALSE

IN: Hi, just wondering whether "UGUGUUUACCUGACUCAGUGAUGUUGAGAAGGAGCGUGCGAAGGCACAGGUAGGUCGCUCAACCUAAAUUCAGGUGAGCACUAAA" shows apparent KD of K4 kissing-loop reporter of 300 nM or higher.
OUT: TRUE
